Target: T1, Rhesus monkey glycophorin A on Rhesus monkey red blood cells (Rhesus monkey, UniProt A0A1D5Q349 20-150)
T1 construct: whole, on cells; also called Rhesus RBC; monkey GPA
T1 sequence: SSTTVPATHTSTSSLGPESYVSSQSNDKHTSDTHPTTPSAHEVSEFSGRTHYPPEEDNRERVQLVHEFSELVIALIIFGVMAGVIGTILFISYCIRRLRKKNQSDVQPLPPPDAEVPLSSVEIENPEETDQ
Assay: FACS, RBC Rh01
Readings of fluorescence intensity for the listed binders

Q: Look up fluorescence intensity for this binder: Hu6C12-2 (antibody, V domains shown, IgG format; VH.1b + Vk.1) VH: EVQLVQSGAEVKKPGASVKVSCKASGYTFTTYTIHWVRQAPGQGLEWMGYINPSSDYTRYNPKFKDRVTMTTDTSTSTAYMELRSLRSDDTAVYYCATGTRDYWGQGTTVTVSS VL: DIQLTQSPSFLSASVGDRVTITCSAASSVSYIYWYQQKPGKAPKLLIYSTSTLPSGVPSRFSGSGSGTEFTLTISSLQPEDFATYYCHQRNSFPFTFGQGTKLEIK
Ans: 1530

Q: Look up fluorescence intensity for this binder: Hu6C12-20 (antibody, V domains shown, IgG format; VH.1c + Vk.1b) VH: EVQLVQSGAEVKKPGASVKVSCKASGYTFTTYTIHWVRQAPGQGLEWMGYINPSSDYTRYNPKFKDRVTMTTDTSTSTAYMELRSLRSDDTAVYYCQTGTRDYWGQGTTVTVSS VL: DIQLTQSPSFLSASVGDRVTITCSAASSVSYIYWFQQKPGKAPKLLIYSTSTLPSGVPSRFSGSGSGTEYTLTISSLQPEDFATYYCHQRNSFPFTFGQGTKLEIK
Ans: 1670

Q: Look up fluorescence intensity for this binder: Hu6C12-22 (antibody, V domains shown, IgG format; VH.1e + Vk.1b) VH: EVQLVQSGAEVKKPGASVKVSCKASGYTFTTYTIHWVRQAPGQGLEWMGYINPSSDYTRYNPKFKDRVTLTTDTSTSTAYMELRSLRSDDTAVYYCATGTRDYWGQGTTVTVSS VL: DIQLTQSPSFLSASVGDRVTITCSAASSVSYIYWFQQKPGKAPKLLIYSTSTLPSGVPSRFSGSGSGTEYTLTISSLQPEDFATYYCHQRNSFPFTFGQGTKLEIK
Ans: 1530

Q: Look up fluorescence intensity for this binder: Hu6C12-15 (antibody, V domains shown, IgG format; VH.1f + Vk.1a) VH: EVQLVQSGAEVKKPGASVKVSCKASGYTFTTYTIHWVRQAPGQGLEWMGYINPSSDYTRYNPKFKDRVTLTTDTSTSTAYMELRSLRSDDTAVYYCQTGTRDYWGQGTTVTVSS VL: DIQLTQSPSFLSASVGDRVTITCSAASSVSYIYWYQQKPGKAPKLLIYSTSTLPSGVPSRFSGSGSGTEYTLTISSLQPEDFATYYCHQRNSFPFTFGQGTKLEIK
Ans: 1520

Q: Look up fluorescence intensity for this binder: Hu6C12-9 (antibody, V domains shown, IgG format; VH.1 + Vk.1a) VH: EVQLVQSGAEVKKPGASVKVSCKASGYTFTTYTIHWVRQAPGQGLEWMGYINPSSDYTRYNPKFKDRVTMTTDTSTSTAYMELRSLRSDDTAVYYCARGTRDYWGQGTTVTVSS VL: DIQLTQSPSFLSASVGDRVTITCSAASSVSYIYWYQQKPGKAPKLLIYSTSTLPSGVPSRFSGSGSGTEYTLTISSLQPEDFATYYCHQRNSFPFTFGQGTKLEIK
Ans: 1060
